experimental-details: Cmax in Sprague-Dawley rat at 2 mg/kg, iv measured upto 24 hrs by LC-MS/MS analysis
Type: ADME, organism-based
Set-up: route intravenous, dose 2 mg/kg, time <=24
measurement-conditions: in vivo
observed-property: Cmax
Just so you know, I need the unit written after the number.

Dear colleague, I am looking for the recorded Cmax of the following molecule: COc1ccc(-c2nc(-c3ccccc3O)n(-c3ccc(S(N)(=O)=O)cc3)n2)c(O)c1
2750 ng/mL

---

experimental-details: Toxicity in […] assessed as organism death at 400 mg/kg, ip observed for 7 day
Assay type: organism-based
measurement-conditions: in vivo
observed-property: LD50 at 168 h

Dear colleague, I am looking for the recorded LD50 at 168 h of the following molecule: COc1ccc(-c2nc(-c3ccccc3O)n(-c3ccc(S(N)(=O)=O)cc3)n2)c(O)c1
400 mg/kg
